Reference source for all entries: patent US12338220B2

assayed-target: CMV-polymerase (Human cytomegalovirus (strain AD169) (HHV-5) (Human herpesvirus 5), UniProt P08546)
assay-remarks: biochemical
stated-conditions: read-out: CMV-polymerase Biochemical IC50
This section presents molecules with their documented pIC50 values.
// returns pIC50 (minus log10 of molar concentration), number only

Please review the following examples before continuing.
> print(dat)
                                   molecule  observed.measurement
1  Cn1nc(C(=O)NCc2ccc(Cl)s2)c2c1C(=O)N(CC1(S(=O)(=O)C3CC3)CC1)CC2 [Example 10]                  7.59
2  CNS(=O)(=O)C1(CN2CCc3c(C(=O)NCc4ccc(Cl)cc4)nn(C)c3C2=O)CC1 [Example 151]                  8.10
3  Cn1nc(C(=O)N[C@@H](CO)c2ccc(Cl)cc2)c2c1C(=O)N(CC1(S(=O)(=O)C3CC3)CC1)CC2 [Example 18]                  7.66

Now turn to the next molecule.
Input: Endpoint output: pIC50 of Cc1cc(NS(=O)(=O)C2(CN3CCc4c(C(=O)NCc5ccc(Cl)cc5)nn(C)c4C3=O)CC2)no1 [Example 166] . Value?
Output: 9.00
